PROTOCOL: yeast display, Sf9 membrane polyspecificity reagent, FACS + sequencing; frameworks hold sequencing errors

INPUT_SEQUENCE | polyreactivity (PSR sort gate)
QVQLVESGGGLVQAGGSLRLSCAASGSIFAGYAMGWYRQAPGKDRELVAAINWTGDSTYYADSVKGRFTNSRDNAKNTVYLQMNSLKQEDTAVYYCAAIRRQKGLWDYYYWGQGTQVTVSS | low polyreactivity
QVQLVESGGGLVQAGGSLRLSCAASGLTFANYVMGWYRQAPGKEREMVAAISRSGGSTYYADSVKGRFTISRDNAKYTVYLQMNSLKPEDTAVYYCAAAAWDPKGSRYDYWGQGTQVTVSS | low polyreactivity
QDQHVESGGGLVQAGGSLRLSFAASGRTFISYTKGWYRPAPGKERELVAAINFSGGITYYADSVKGRFTISHDNAMNTVYLQMNSLKPVDTAVYYCAADWRTRYDYWGQGTQVTVSS | low polyreactivity

---

PROTOCOL: yeast display, Sf9 membrane polyspecificity reagent, FACS + sequencing; frameworks hold sequencing errors
MEASURED_PARAMETER: polyreactivity (PSR sort gate)

Recorded polyreactivity (PSR sort gate), per entry:
INPUT_SEQUENCE | OBSERVED
QFQLVETRRGLVQAGGSLRLSCAASGSIFLENAMRRYRQAPGKERELVAVINSGDSTYYADSVKGRFTMSRDNAKNTVYLQMNSLKPEDTSVYYCAADRDVRTRVFSYDYWGQGTQVTVSS | low polyreactivity
QVQLVESGGGLVQAGGSLRLSCAASGRIFEWYAMGWYRQAPGKEREFVARITIGGRTYYADSVKGRFTISRDNAKNTVYFQMNSVKREDTAVYYCNAPYAWARPYIVSSTYDYWGQGTQVTVSS | high polyreactivity
QVQLVESGGGLVQAGGSLPVSCAASGFTIVYYAKGWYRQAPGKERELVADISSEGSTYADSVKGRFTISRDNAKNTVSLQMNSLKPEDTAVYYCPAQPIYSYWRSSLYYYWGQGTQVTVSS | high polyreactivity
QVQLVESGGGLVQAGGSLRLSCAASGSTLRYYAMGWYRQAPGKERELVAAITYSAGRTSYADSVKGRFTISRDNAKNTVYLQMNSLKPEDTAVYYCATQWHSYLRRYDYWGQGTQVTVSS | low polyreactivity

Could you report polyreactivity (PSR sort gate) for every entry in the following list?
1. QVQLVESGGGLVQAGGSLRLSCAASGRTFKYNTMGWYRQAPGKERELVAVISRSGGRTYYADSVKGRFTISRDNAKNTVYLQMNSLKPEDTAVYYCAKGIPYADPQSAYDDYWGQGTQVTVSS
2. QVQLVESGGGLVQAGGSLRLSCAASGFIFDTYAMGWYRQAPGKERELVAAISYRGGSTYYADSVKGRFTISRDNAKNTVYLQMNSLKPEDTAVYYCNAYWRYSYFGRDYWGQGTQVTVSS
3. QVQLVESGGGLVQAGGSLRLSCAASGFIMDNYAMGCYRQAHGKERELVAAISGSGGSTYYADSVKGRFTISRDNAKNTVYLQMNSLKPEDTAVYYCNRDRLLRQYDYWGQGTQVTVSS
4. QDQLVESGGGLVQAGGSLRLSCAASGSTFSDNTMGWYRQAPGKERELVAANTTIGGSTYYADSVKGRFTISRDNAKNTVSVQMISLKPEDTAVYYCAAVDFTSQYYDLYIYWGQGTQVTVSS
5. QVQLVESGGGLVQAGGSLRLSCAASGSTFARYAMGWYRQAPGKERELVAVITRSGGSTYYADSVKGRFTISRDNAKNTVYLQMNSLKPEDTDVYYCNKYGYKGGVGYDYWGQGTQVTVSS

Reply:
high polyreactivity
low polyreactivity
high polyreactivity
low polyreactivity
high polyreactivity

Each of the following entries comes with a recorded value; kindly state polyreactivity (PSR sort gate) for each.
1. QVQLVESGGGLVQAGGSLRLSCAASGSTFWVYAMGWYRQAPGKERELVATISRGGSTNYADSVKGRFTISRDNAKNTVYLQMNSLKPEDTAVYYCAAPRFYGYGYEYWGQGTQVTVSS
2. QFQLVESGGGLVQAGGSLPLSCAASGRTFGGNTMGRYREAPGKERELVAAISRRGGSTYYADSVKGRFTISRDNAKNTVYLQMNSLKPEDTAVYYCNKDGPSYSSYDYWGQGTQVTVSS
3. QVQLVESGGGLVQAGGSLRLSCAASGFISRYYYMGWYRQAPGKERELVAAIRWSGDRTYYADSVKGRFTISRDNAKNTVYLLMNSLKPEDTAVYYCNADVVLGRSWRGYWGQGTQVTVSS
4. QVQLVESGGGLVQAGGSLRLSCAASGFTIYYYAMGWDRQAPGKERELVASITSGGSTYYADSVKGRFTISRDNAKNTVYLQMNSLKPEDTAVYYCAADYYSPSLRYDYWGQGTQVTVSS

Reply:
low polyreactivity
low polyreactivity
high polyreactivity
low polyreactivity
